Details: buffer; pH 7.4; 200.0 µM
measurement label: solubility kinetic

Sample answers from the record:
molecule: Cl.O=[N+]([O-])c1cc(S(=O)(=O)CCCN2CCOCC2)ccc1F
measurement label: solubility kinetic
val: > 55.3 µg/mL
--
molecule: CCc1nc(NC(=O)Cc2csc(C)n2)sc1C(=O)OC
measurement label: solubility kinetic
val: > 48.8 µg/mL
--
molecule: CCCNC(=O)c1nn2cc(Br)cnc2c1Cl
measurement label: solubility kinetic
val: > 47.6 µg/mL

In the following, a different molecule is considered.
stdin: I would be grateful if you could share the reported solubility kinetic for Fc1ccc2c(c1)C1OCCCC1C(c1ccccc1)N2 (centres undefined) .
stdout: < 0.6 µg/mL
